# Procedure Summary: NCI Yeast Anticancer Drug Screen. Data for the sgs1 mgt1 strain (AID 161);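 further: 0% = growth of cultures given vehicle only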
# Particulars: S. cerevisiae sgs1 mgt1 strain, at 50.0 µM, stronger effect = higher value
# Procedure: Growth inhibition of yeast strains with defined genetic alterations is measured as a screen for potential anti-cancer activity. Selected strains with alterations in DNA damage repair or cell cycle control were exposed to compounds and growth inhibition was measured relative to vehicle treated controls. The strain used in this assay is sgs1 mgt1
This is part of a sample that, as a whole, favours compounds with a hit. Of some 79,000 tested, about 15% had one in any assay. *1 amine or outer side, *2 acyl side, *3 side chain or, on linkers, in order; H or OH if unused. Where a SMILES comes first, the peptide text is derived from it. [ ]: non-standard residue; d: D form. The star is where a group is joined. X17 = CC(=O)N(C)SCC(N[*:1])C(=O)[*:2]; Fmoc = O=C(OCC1c2ccccc2-c2ccccc21)*; For = O=C*
Below is a list of entries, each paired with its recorded growth inhibition value.

| Compound | Readout Unit | growth inhibition |
| --- | --- | --- |
| COc1ccc(/C(O)=C/c2nc3cccc([N+](=O)[O-])c3[nH]c2=O)cc1 | % | 2.3 |
| Nc1ccn[nH]1 | % | 0.8 |
| O=C1NC(=O)C(=Nc2cccc3c(=O)[nH][nH]c(=O)c23)C(c2nc3ccccc3s2)C1=O (stereo not given) | % | -12.8 |
| CC(=O)CC(=O)C(F)(F)F | % | -20.5 |
| C=C(Cl)COC(=O)C(C)O (stereo not given) | % | -7.55 |
| CC(=O)N(C)SCC(NC(=O)C(Cc1ccccc1)NC(=O)OCC1c2ccccc2-c2ccccc21)C(=O)NC(Cc1ccccc1)C(=O)NC(Cc1cn(C=O)c2ccccc12)C(=O)NC(CCCCNC(=O)OCC1c2ccccc2-c2ccccc21)C(=O)NC(C(=O)NC(CSN(C)C(C)=O)C(=O)NC(C(N)=O)C(C)O)C(C)O (stereo not given) (Fmoc-F[X17]FW(For)K(Fmoc)T[X17]T-NH2; configuration not given here) | % | 65.1 |
| CO[C@@]12C[C@@H](C)[C@]34O[C@H]3C[C@]3(C)O[C@]43CC1=C(C)C(=O)O2 | % | 23.6 |
| COc1cc2c(cc1OC)C1c3ccccc3CCCN1CC2 (stereo not given) | % | -57.5 |
| Oc1ccccc1C=NCCCN=Cc1ccccc1O | % | 36.5 |
| O=C(O)CN(CC(=O)O)Cc1ccccc1 | % | 6.8 |
| CC(=O)[C@H]1[C@H](C)C[C@H]2[C@@H]3CCC4=CC(=O)CC[C@]4(C)[C@@]3(F)C(=O)C[C@@]21C | % | -3.3 |
| NC(=O)C1CCCN1C(=O)C(Cc1cnc[nH]1)NC(=O)C1CCCC1 (stereo not given) | % | -1.65 |
| C=CCC(C#N)C1=CCCCC1 (stereo not given) | % | -12.4 |
| c1ccc2scnc2c1 | % | 13.7 |
| Cc1cccc(C(C)(C)C)c1NC(=O)CC1C(=O)Nc2ccccc2S1(=O)=O (stereo not given) | % | -4.4 |
